assay: Ex vivo biodistribution in mice with MM1S tumor xenografts; conditions: both sexes, NSG, mouse, brain, 80 µCi, 60 min p.i.; MM1S xenograft mice; read-out: uptake in brain

- compound: "CC[C@H](C)[C@@H]1NC(=O)[C@@H]2CCCN2C(=O)[C@H](Cc2ccccc2)NC(=O)[C@H](CC(=O)O)NC(=O)[C@H](C)NC(=O)[C@@H]2CSCc3cc(cc(c3)CSC[C@H](NC(=O)[C@H](C)NC(=O)CCOCCOCCOCCNC(=O)CN3CCN(CC(=O)O)CCN(CC(=O)O)CC3)C(=O)N[C@@H](C(C)C)C(=O)N3CCC[C@H]3C(=O)N2)CSC[C@@H](C(N)=O)NC(=O)[C@H](Cc2ccc(O)cc2)NC(=O)[C@H](Cc2c[nH]c3ccccc23)NC1=O [[^68Ga]Ga‐AJ206, metal not drawn]"
  tissue uptake at 1 h [%ID/g]: 0.06
